# TARGET_OF_ASSAY: T1, human APRIL protein (human, UniProt O75888 105-250, limits assumed)
# T1 construct: Bought protein; also called recombinant APRIL protein
# T1 sequence (looked up): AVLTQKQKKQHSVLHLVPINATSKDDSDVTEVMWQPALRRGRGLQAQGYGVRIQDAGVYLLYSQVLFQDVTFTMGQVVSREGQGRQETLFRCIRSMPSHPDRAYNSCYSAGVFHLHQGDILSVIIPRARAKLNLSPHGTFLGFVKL
# ASSAY_OVERVIEW: ELISA, coated APRIL; antibody 0.00427 nM
Each entry below carries its recorded OD450 nm.

>>> data_value("L1D12 (antibody, human IgG1, V domains shown, also called LID12) VH: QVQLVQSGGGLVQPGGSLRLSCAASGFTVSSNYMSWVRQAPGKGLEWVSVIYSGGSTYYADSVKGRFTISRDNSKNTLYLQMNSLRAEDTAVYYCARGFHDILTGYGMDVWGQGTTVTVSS VL: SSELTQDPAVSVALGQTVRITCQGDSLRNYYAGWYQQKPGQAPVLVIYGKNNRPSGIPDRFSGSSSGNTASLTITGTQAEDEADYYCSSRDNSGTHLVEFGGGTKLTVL")
0.121
>>> data_value("35E6F7C3 (antibody, V domains shown, Mouse hybridoma antibody purified on Protein G) VH: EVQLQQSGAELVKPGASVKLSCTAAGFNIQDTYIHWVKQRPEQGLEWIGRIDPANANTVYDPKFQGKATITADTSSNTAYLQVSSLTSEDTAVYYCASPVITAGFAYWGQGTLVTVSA VL: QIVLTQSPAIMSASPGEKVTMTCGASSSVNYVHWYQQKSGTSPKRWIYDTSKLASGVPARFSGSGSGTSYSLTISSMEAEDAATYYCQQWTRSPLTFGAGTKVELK")
0.0553

// OD450 nm value for 97E7B3F2 (antibody, V domains shown) VH: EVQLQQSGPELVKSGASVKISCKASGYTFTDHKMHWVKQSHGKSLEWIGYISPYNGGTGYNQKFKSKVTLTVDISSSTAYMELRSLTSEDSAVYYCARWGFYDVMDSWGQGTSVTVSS VL: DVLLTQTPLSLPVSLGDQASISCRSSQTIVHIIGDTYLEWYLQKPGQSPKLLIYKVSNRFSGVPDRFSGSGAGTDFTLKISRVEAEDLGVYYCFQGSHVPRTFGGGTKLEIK : 0.0535
